assay summary: Tmax in C57BL/6 mouse plasma at 0.8 mg/kg administered via oral gavage by LC-MS analysis
Assay type: ADME, organism-based
recorded metric: Tmax (min)
Answers are plain numbers, in min.

Summary for this molecule, [N-]=[N+]=CC(=O)CC[C@H](N)C(=O)O [6-DIAZO-5-OXO-L-NORLEUCINE] : Tmax is 10.2

---

assay summary: Cmax in pig-tail monkey plasma assessed as 6-Diazo-5-oxo-L-norleucine levels at 3.6 mg/kg, iv by LC-MS analysis
Type: ADME, organism-based
Parameters: dose 3.6 mg/kg, route intravenous
particulars: macaca nemestrina, in vivo
recorded metric: Cmax

Reported Cmax for COC(=O)[C@H](CCC(=O)C=[N+]=[N-])NC(=O)OC(OC(=O)C(C)(C)C)C(C)C (stereo partly specified) was 2230 nM

---

Field: remaining at 1 h, 10 µM. Provide a value for each of the compounds that follow.
assay summary: Metabolic stability in mouse plasma assessed as compound remaining at 10 uM at 60 mins by LC-MS/MS analysis
Format: ADME, cell-free
particulars: read-out: Stability
Numbers only, in %.

Some solved entries appear below for comparison.
COC(=O)[C@H](CCC(=O)C=[N+]=[N-])NC(=O)OC(OC(=O)C(C)(C)C)C(C)C (some centres not stated) ... 0
CC(C)C[C@H](N)C(=O)N[C@@H](CCC(=O)C=[N+]=[N-])C(=O)OC(C)C ... 0
CC(C)OC(=O)[C@H](CCC(=O)C=[N+]=[N-])NC(=O)OCOC(=O)C(C)(C)C ... 0
CCOC(=O)[C@H](CCC(=O)C=[N+]=[N-])NC(=O)OCc1oc(=O)oc1C ... 0
CCOC(=O)[C@H](CCC(=O)C=[N+]=[N-])NC(=O)[C@@H](N)CC(C)C ... 0

I'm hoping you can list remaining at 1 h, 10 µM for every compound here, please.
1. Cc1oc(=O)oc1COC(=O)N[C@@H](CCC(=O)C=[N+]=[N-])C(=O)OC(C)C
2. CCC(OC(=O)N[C@@H](CCC(=O)C=[N+]=[N-])C(=O)OC)OC(=O)C(C)(C)C (some centres not stated)

1. 0
2. 0
